Assay: probe aNOTCH3 binding on compound microarray – biochemical, small-molecule microarray, 635/667 nm fluorescence, primary screen (AID 1120);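 note: probe is a biotin-tagged antibody raised against NOTCH3 rather than NOTCH3 protein; score merges spot fluorescence near 667 nm with spot signal to noise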
Details: higher = more signal
Just so you know, the groups by composite z-score go like this: lower bin (below -0.01), middle bin (-0.01 to below 0.2), upper bin (0.2 or more)

- compound: "COCCOC(=O)N1C(=O)[C@@]2(c3cc(C#CCC(C(=O)OC)C(=O)OC)ccc31)[C@H](C(N)=O)[C@H]1C(=O)O[C@H](c3ccccc3)[C@H](c3ccccc3)N1[C@@H]2c1ccc(O)cc1"
  assigned-label: "middle bin"
- compound: "COC(=O)[C@@]1(Cc2ccccc2)N=C(c2ccc(OCCCO)cc2)O[C@H]1c1ccccc1CN=[N+]=[N-]"
  assigned-label: "middle bin"
- compound: "C=CC1c2cc(O)c(OC)cc2CCN1C (stereo unspecified)"
  assigned-label: "lower bin"
- compound: "CC(C)NC(=O)[C@@]1(c2ccc([N+](=O)[O-])cc2)CC(=O)N(CC23CC4CC(CC(C4)C2)C3)[C@@H]1c1ccc(CO)cc1"
  assigned-label: "upper bin"
- compound: "COc1cc(CO)cc(I)c1O[C@H]1C=C(C(=O)NCCO)C[C@@H](NC2CCCCCC2)[C@@H]1O"
  assigned-label: "middle bin"
- compound: "CC(=O)OCC1C2CC[C@H]3C(OCc4ccc(F)cc4C(F)(F)F)OC[C@]4(C)[C@H]3C2=C(CN4C(=O)OC(C)(C)C)[C@H](C)C1COC(C)=O (stereo partly specified)"
  assigned-label: "middle bin"
- compound: "COC(=O)C(CC#Cc1ccc2c(c1)[C@]1(C(=O)N2)[C@H](c2ccccc2OCCO)N2[C@H](c3ccccc3)[C@H](c3ccccc3)OC(=O)[C@H]2[C@@H]1C(=O)N1CCc2cc(OC)c(OC)cc2C1)C(=O)OC"
  assigned-label: "middle bin"
- compound: "Cc1ccc(F)cc1S(=O)(=O)N[C@H]1CCN(Cc2ccc(OC(C)C)cc2)C1"
  assigned-label: "lower bin"
- compound: "[N-]=[N+]=NCc1ccccc1[C@@H]1OC(c2ccc(OCCCO)cc2)=N[C@]1(Cc1ccccc1N=[N+]=[N-])C(=O)NCC(O)CO (stereo partly specified)"
  assigned-label: "upper bin"
- compound: "COCCOC(=O)N1C(=O)[C@@]2(c3cc(C#CCCO)ccc31)[C@H](c1ccccc1OCCO)N1[C@H](c3ccccc3)[C@H](c3ccccc3)OC(=O)[C@H]1[C@@H]2C(N)=O"
  assigned-label: "middle bin"
- compound: "COCCCNC(=O)[C@@]1(Sc2ccc(C)cc2)CC(=O)N(Cc2ccccc2C(F)(F)F)[C@@H]1c1ccc(CO)cc1I"
  assigned-label: "lower bin"
- compound: "CN1C(=O)C2C(C1=O)C1C=C(CCCO)C2C(C2CC2)N1Cc1cccc(OC(F)(F)F)c1 (stereo unspecified)"
  assigned-label: "middle bin"
- compound: "C[N+](C)(C)CCCCNC(=O)[C@H]1C[C@H]2C(=O)N[C@@H](Cc3ccccc3)C(=O)N2[C@H]1c1cccc(OCCO)c1"
  assigned-label: "middle bin"
- compound: "COc1ccc(C(O)C2C=CC3C(=O)N(c4ccccc4)C(=O)C3N2Nc2ccc([N+](=O)[O-])cc2)c2ccccc12 (stereo unspecified)"
  assigned-label: "middle bin"
- compound: "C=CCC(OC(C)=O)[C@@H]1[C@@H](N(Cc2ccc(-c3ccccc3)cc2)C(=O)c2cccc3ccccc23)c2cc(OCCCO)ccc2N1C(=O)Cc1ccc(OC)cc1 (stereo partly specified)"
  assigned-label: "upper bin"
- compound: "CC(C)(C)N1CC=CC23O[C@@H]4C=CCOC(=O)[C@@H]4[C@H]2C(=O)N(CCO)[C@@H]3C1=O (stereo partly specified)"
  assigned-label: "lower bin"
- compound: "CC(C)N1C(=O)c2ccccc2[C@](C)(C(=O)NCC(F)(F)F)[C@@H]1c1ccc(CO)cc1"
  assigned-label: "lower bin"
- compound: "COc1ccc(C(O)C2C=CC3C(=O)N(c4ccccc4)C(=O)C3N2Nc2ccc(C#N)cc2)cc1OCc1ccccc1 (stereo unspecified)"
  assigned-label: "upper bin"
- compound: "CCC(CC)C(O)C1C=CC2C(=O)N(c3ccccc3)C(=O)C2N1Nc1ccccc1F (stereo unspecified)"
  assigned-label: "middle bin"
- compound: "OCCCC1=CC(c2ccc(CN3CCCC3)cc2)N(Cc2cccc(OC(F)(F)F)c2)CC1 (stereo unspecified)"
  assigned-label: "middle bin"
- compound: "O=C1OCCC=C[C@H]2OC34C=CCN(c5ccc6ccccc6c5)C(=O)[C@H]3N(CCO)C(=O)[C@@H]4C12 (stereo partly specified)"
  assigned-label: "lower bin"
- compound: "CC(C)C(=C=CC[C@H](O)c1ccccc1OCCO)C[C@H](O)COCc1ccccc1"
  assigned-label: "lower bin"
- compound: "O=C1O[C@@H](c2ccccc2)[C@@H](c2ccccc2)N2[C@@H](c3ccc(OCCO)cc3)[C@]3(C(=O)Nc4ccc(C#CC5(O)CCCCCC5)cc43)[C@@H](C(=O)O)[C@H]12"
  assigned-label: "middle bin"
- compound: "C=CCNC(=O)[C@H]1[C@@H]2C(=O)O[C@@H](c3ccccc3)[C@@H](c3ccccc3)N2[C@@H](c2ccc(OCCO)cc2)[C@]12C(=O)Nc1ccccc12"
  assigned-label: "lower bin"
